# STUDY TARGET: Amine oxidase [flavin-containing] A (Rattus norvegicus)
# TEST METHOD NOTES: In vitro inhibitory concentration against Monoamine oxidase A of rat brain homogenates; value ranges from 7.6-12.5
# Type: tissue-based
METRIC: pIC50
Notebook: values listed as pIC50 are -log10 of the concentration (mol/L).

Q: Look at this compound and give its reported pIC50. CN(C)C(=O)Oc1cccc2c1CCC2N (stereo unspecified)
A: 5.01

---

# STUDY TARGET: Amine oxidase [flavin-containing] A (Rattus norvegicus)
# TEST METHOD NOTES: In vitro inhibitory concentration against Monoamine oxidase A of rat brain homogenates; value ranges from 4.3-7.3
# Assay type: tissue-based
METRIC: IC50 (µM)
Please state the figure in µM; there is no need to write the unit.

Q: Query for Amine oxidase [flavin-containing] A (Rattus norvegicus): what IC50 does the record show for CCN(C)C(=O)Oc1ccc2c(c1)[C@H](N)CC2 ?
A: 5.6

---

# STUDY TARGET: UniProt P22303
# Sequence (P22303 whole entry): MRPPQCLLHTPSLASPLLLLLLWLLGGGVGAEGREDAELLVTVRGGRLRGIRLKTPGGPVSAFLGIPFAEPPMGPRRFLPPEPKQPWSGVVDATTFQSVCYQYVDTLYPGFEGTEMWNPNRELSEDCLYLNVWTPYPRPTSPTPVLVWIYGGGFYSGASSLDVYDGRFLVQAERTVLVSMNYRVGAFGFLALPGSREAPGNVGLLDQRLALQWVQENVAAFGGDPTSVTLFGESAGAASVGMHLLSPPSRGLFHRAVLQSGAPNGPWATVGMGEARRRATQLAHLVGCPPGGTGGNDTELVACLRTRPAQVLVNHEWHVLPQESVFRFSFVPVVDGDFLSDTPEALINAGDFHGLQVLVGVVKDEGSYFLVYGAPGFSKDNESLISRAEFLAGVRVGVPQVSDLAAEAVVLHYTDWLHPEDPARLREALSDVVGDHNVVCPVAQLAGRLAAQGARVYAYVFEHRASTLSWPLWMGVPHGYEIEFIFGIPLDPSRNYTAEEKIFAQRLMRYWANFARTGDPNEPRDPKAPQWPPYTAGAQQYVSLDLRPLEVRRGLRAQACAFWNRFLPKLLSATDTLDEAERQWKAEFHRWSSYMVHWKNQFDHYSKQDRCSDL
# TEST METHOD NOTES: In vitro inhibitory concentration against purified Acetylcholinesterase of human erythrocytes; value ranges from 2.36-4.22
METRIC: IC50 (µM)
# number only, unit µM dropped from output

Q: UniProt P22303 / IC50 / C#CCN(C)C(C)Cc1cccc(OC(=O)N(C)CCCCCC)c1 (stereo unspecified) : value?
A: 3.06

---

# STUDY TARGET: Amine oxidase [flavin-containing] A (Rattus norvegicus, UniProt P21396)
# Sequence (P21396 whole entry): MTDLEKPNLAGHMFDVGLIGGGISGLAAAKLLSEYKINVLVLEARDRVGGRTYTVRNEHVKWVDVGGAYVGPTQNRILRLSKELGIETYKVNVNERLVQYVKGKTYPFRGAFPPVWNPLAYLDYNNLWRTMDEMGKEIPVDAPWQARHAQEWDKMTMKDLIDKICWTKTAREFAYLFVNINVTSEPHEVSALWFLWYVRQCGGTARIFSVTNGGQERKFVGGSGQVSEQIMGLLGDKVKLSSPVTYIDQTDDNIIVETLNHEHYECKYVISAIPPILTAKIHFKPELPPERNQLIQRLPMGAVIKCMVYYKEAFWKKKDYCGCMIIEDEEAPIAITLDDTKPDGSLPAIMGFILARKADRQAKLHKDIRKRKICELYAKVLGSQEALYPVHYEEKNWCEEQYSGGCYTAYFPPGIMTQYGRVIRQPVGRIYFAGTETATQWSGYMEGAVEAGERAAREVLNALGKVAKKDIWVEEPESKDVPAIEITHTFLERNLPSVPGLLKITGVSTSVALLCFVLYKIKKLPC
# TEST METHOD NOTES: In vitro inhibitory concentration against Monoamine oxidase A of rat brain homogenates; value ranges from 14-24
# Type: tissue-based
METRIC: pIC50
Scale explanation: pIC50 corresponds to minus log10 of a concentration expressed in moles per litre.

Q: Entry C#CCNC(C)Cc1cccc(OC(=O)N(C)C2CCCCC2)c1 (stereo unspecified) has what pIC50?
A: 4.74

---

# STUDY TARGET: UniProtKB P19643
# Sequence (P19643 whole entry): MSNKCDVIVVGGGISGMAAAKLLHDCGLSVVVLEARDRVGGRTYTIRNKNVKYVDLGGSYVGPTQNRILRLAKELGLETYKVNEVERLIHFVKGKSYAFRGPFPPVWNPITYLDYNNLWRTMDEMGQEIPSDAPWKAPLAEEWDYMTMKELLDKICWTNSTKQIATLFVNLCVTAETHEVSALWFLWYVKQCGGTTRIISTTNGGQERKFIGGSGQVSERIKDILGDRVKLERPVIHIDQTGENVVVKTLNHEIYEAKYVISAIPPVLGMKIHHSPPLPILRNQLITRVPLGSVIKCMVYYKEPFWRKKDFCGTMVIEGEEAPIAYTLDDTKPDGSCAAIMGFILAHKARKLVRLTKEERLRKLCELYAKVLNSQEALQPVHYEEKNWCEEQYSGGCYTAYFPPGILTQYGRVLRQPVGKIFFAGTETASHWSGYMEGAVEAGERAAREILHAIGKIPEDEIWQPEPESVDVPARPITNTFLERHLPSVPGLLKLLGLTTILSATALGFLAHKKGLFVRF
# TEST METHOD NOTES: In vitro inhibitory concentration against Monoamine oxidase B of rat brain homogenates; value ranges from 11-52
# Format: tissue-based
METRIC: pIC50
// returns pIC50 (minus log10 of molar concentration), number only

Q: Recorded pIC50 for C#CCNCCc1cccc(OC(=O)N(C)C)c1 , please?
A: 4.62
